Where do these numbers come from? They come from patent US9650366B2.

- tgt: human GST-PKR (Homo sapiens (Human))
- Sequence (P19525 whole entry): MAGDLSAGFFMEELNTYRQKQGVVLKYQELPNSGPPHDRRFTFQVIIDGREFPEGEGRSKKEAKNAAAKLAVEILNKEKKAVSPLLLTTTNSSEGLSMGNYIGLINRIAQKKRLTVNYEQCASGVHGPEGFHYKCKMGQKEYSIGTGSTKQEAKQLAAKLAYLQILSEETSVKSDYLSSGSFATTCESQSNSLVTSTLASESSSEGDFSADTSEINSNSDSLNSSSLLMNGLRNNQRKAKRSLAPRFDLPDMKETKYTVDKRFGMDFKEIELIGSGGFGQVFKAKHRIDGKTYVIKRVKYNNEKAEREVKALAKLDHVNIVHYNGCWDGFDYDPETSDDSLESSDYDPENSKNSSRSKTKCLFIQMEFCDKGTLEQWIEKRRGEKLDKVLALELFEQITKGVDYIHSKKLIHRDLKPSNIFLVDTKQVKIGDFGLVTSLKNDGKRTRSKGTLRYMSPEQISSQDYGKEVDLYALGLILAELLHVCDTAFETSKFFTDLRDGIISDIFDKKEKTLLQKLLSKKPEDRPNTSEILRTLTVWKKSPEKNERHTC
- measurement description: PKR KinaseGlo Assay
- Type: biochemical
- conditions used: recombinant human GST-PKR, 6.6 uM ATP
The label is condition met for IC50 below 300 nM and condition not met for IC50 equal to or exceeding 300 nM.

# count of solved cases: 5
[
  {
    "molecule": "O=C(Nc1ccc(Cl)c(C(F)(F)F)c1)Nc1ccc2sc(-c3cncc(-c4nn[nH]n4)c3)cc2c1 [Example 1]",
    "group": "condition not met"
  },
  {
    "molecule": "O=C(Nc1ccc(C#Cc2cncc(-c3nnn(CCCO)n3)c2)cc1)Nc1cc(C(F)(F)F)ccc1F [Example 12]",
    "group": "condition not met"
  },
  {
    "molecule": "Nc1ncc(-c2nnn(CCCO)n2)cc1-c1cc2cc(NC(=O)Nc3ccc(F)c(C(F)(F)F)c3)ccc2s1 [Example 4]",
    "group": "condition met"
  },
  {
    "molecule": "Nc1ncc(-c2ncccn2)cc1-c1cc2cc(NC(=O)Nc3ccc(Cl)c(C(F)(F)F)c3)ccc2s1 [Example 13]",
    "group": "condition not met"
  },
  {
    "molecule": "Nc1ncc(-c2nnn(CCO)n2)cc1-c1cc2cc(NC(=O)Nc3ccc(Cl)c(C(F)(F)F)c3)ccc2s1 [Example 8]",
    "group": "condition met"
  }
]

-- ask Confirm or reject: IC50 of Nc1ncc(-c2nnn(CCCO)n2)cc1C#Cc1cccc(NC(=O)Nc2ccc(Cl)c(C(F)(F)F)c2)c1 [Example 11] lies strictly below 300 nM
-- reply condition met
